These data points were gathered from paper PMC8948984.

system: PC-3 cells; test: CCK-8 cytotoxicity assay, PC-3 cells; format: cell-based; details: Homo sapiens, PC-3, read-out: IC50 against PC-3 cells, prostatic carcinoma cell line PC-3, CCK-8, triplicate
Recorded metric: IC50 (nM)
Please respond with the number in nM and leave the unit unwritten.

The measured IC50 associated with C=C1[C@@H](C)[C@H]2[C@H](Cc3c[nH]c4ccccc34)NC(=O)[C@]23C(=O)CC[C@H](O)C(=O)/C(C)=C/[C@@H](C)C/C=C/[C@H]3[C@@H]1O [Compound 5, chaetoglobosin Fex] reads 2320

---

target: acetylcholinesterase (AChE) (Homo sapiens, UniProt P22303); assay: biochemical
Sequence (P22303 32-614, species assumed): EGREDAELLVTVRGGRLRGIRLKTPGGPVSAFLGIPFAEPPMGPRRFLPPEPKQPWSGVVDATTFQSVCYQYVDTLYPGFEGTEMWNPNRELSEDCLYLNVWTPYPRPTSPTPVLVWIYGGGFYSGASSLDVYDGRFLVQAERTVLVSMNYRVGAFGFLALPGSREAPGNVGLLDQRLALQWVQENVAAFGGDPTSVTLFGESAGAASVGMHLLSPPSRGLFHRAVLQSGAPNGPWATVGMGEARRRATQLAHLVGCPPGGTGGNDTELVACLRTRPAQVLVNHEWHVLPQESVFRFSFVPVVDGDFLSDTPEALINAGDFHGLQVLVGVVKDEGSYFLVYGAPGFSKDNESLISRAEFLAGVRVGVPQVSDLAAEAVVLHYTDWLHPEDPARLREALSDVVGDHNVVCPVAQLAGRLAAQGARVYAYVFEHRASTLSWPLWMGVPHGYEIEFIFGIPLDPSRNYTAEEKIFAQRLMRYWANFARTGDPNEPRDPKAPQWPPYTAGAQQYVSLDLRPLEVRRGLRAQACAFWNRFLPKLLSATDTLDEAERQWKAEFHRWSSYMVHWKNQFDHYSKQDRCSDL
IC50 values for the compounds below.
Write your answer as a measured quantity: the number, then the unit.

compound="CC1=C(C)[C@H]2[C@H](Cc3c[nH]c4ccccc34)NC(=O)[C@]23C(=O)CCC(=O)C(=O)/C(C)=C/[C@@H](C)C/C=C/[C@H]3[C@@H]1O [Compound 6, chaetoglobosin G]" recorded_metric=IC50 observed_value="8.71 µM"

Consider the additional compound presented here.
The measured IC50 associated with C=C1[C@@H](C)[C@H]2[C@H](Cc3c[nH]c4ccccc34)NC(=O)[C@]23C(=O)CC[C@H](O)C(=O)/C(C)=C/[C@@H](C)C/C=C/[C@H]3[C@@H]1O [Compound 5, chaetoglobosin Fex] reads 31.7 µM
